system: MALME-3M melanoma; experiment: NCI tumour cell line growth inhibition, 48 h
Property: TGI; scope: individual molecules

{"molecule": "S=C1Cc2c(-c3ccccc3)cc(-c3cccc(Cl)c3)nc2-c2ccccc2N1", "tested.target": "MALME-3M melanoma", "TGI": "> 24.5 µM"}
{"molecule": "CC(C)C(Cl)CCC(C)(Cl)C(=O)CBr (centres undefined)", "tested.target": "MALME-3M melanoma", "TGI": "23 µM"}
{"molecule": "CC(=O)[CH-]C(=O)c1ccccc1.[C-]#[O+].[C-]#[O+].[Ir]", "tested.target": "MALME-3M melanoma", "TGI": "> 100 µM"}
{"molecule": "Cc1c(C)c2c(c(N)c1C#N)C(=O)N(Cc1ccc(S(N)(=O)=O)cc1)C2=O", "tested.target": "MALME-3M melanoma", "TGI": "> 100 µM"}
{"molecule": "COCCN(CCOC)c1nc(-c2ccccc2)nc2ccccc12", "tested.target": "MALME-3M melanoma", "TGI": "39.9 µM"}
{"molecule": "CCCCCCCCCCCC[C@@H](O)[C@H]1CC[C@H]([C@H](O)CC[C@H](O)[C@@H]2CC[C@@H](CCCCCCCC3=C[C@H](C)OC3=O)O2)O1", "tested.target": "MALME-3M melanoma", "TGI": "> 50 µM"}
{"molecule": "C[C@H]1CC[C@@]2(OC1)O[C@H]1C[C@H]3[C@@H]4CC[C@@H]5C[C@@H](OC6OC(CO)C(O)C(O)C6OC6OC(CO)C(O)C(O)C6O)CC[C@]5(C)[C@H]4CC[C@]3(C)[C@H]1[C@@H]2C (some centres undefined)", "tested.target": "MALME-3M melanoma", "TGI": "4.5 µM"}
{"molecule": "c1ccc(COC[C@H]2O[C@@H](c3ccccc3)C[C@@H](OCc3ccccc3)C2OCc2ccccc2)cc1 (some centres undefined)", "tested.target": "MALME-3M melanoma", "TGI": "> 10 µM"}
{"molecule": "C=CCON(C(=O)OC(C)(C)C)C(C)(C)C", "tested.target": "MALME-3M melanoma", "TGI": "> 100 µM"}
{"molecule": "Clc1ccc(C=Nc2ccc(Oc3ccc(Cl)cc3)c(Cl)c2)cc1", "tested.target": "MALME-3M melanoma", "TGI": "49.2 µM"}
{"molecule": "[B]C(=O)NC(CC(C)C)C(=O)NCC(=O)NC1c2ccsc2C(=O)C1O (centres undefined) (tested in a mixture with another compound)", "tested.target": "MALME-3M melanoma", "TGI": "> 100 µM"}
{"molecule": "CCCCCCCCCCCCCCCCCCNc1ccn(C2OC(COP(=O)(O)OCC3OC(n4ccc(N)nc4=O)C(O)C3O)C(O)C2O)c(=O)n1 (centres undefined)", "tested.target": "MALME-3M melanoma", "TGI": "> 100 µM"}
{"molecule": "CN1CCOC(C(NC(=O)c2ccccc2)c2ccccc2)C1=O (centres undefined)", "tested.target": "MALME-3M melanoma", "TGI": "> 100 µM"}
{"molecule": "Oc1ccc(C(=C(Br)c2ccccc2)c2ccc(O)cc2)cc1", "tested.target": "MALME-3M melanoma", "TGI": "18 µM"}
{"molecule": "CCOC(=O)C1(C/C=C\\CBr)CCCC1=O (centres undefined)", "tested.target": "MALME-3M melanoma", "TGI": "> 100 µM"}
{"molecule": "CCN(CC)CCNc1ccc([N+](=O)[O-])c2nc3ccc(OC)cc3c(NCCN(CC)CC)c12", "tested.target": "MALME-3M melanoma", "TGI": "5.07 µM"}
{"molecule": "Cc1cccc(Cn2cc(CO)c3cnccc32)c1", "tested.target": "MALME-3M melanoma", "TGI": "> 100 µM"}
{"molecule": "O=C(c1ccc(Cl)cc1)C1OC12C(=O)Nc1c(Cl)cc(Cl)cc12 (centres undefined)", "tested.target": "MALME-3M melanoma", "TGI": "> 100 µM"}
{"molecule": "C=C(CN1CCc2[nH]c3ccc(F)cc3c2C1)c1ccc(C(=O)Nc2ccccc2N)cc1", "tested.target": "MALME-3M melanoma", "TGI": "3.1 µM"}
